- ASSAYED_TARGET: thromboxane synthase (Homo sapiens, UniProt P24557)
- Construct: 1 ml of the platelet suspension and 0.01 ml of the test preparation in 10% DMSO are incubated at 37° C. for 2 min; endogenous in cells
- Sequence (P24557 whole entry): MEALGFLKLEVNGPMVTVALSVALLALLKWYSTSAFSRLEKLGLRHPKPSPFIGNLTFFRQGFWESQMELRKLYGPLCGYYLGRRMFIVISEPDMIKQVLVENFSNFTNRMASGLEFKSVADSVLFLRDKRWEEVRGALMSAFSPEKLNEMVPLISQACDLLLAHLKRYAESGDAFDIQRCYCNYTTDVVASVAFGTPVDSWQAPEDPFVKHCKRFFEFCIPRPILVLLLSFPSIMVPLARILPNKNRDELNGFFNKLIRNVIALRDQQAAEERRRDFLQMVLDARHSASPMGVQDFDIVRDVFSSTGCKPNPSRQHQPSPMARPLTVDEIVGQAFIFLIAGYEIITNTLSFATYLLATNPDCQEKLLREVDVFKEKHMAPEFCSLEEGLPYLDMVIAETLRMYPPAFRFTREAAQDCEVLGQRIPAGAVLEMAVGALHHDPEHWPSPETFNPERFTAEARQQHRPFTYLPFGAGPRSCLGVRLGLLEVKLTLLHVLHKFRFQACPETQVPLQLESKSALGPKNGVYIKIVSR
- METHOD_SUMMARY: Measurement of the thromboxane synthase in washed human platelets
- CONDITIONS: 3H-arachidonic acid, 37° C., 10 min, read-out: IC50 (50% inhibition of thromboxane formation compared to the control)
Where a name gives a salt, the structure may show the parent alone.
Catalogue of pIC50 readings, one per entry.
In simple prose, pIC50 is minus the logarithm base ten of a concentration in moles per litre.

>>> result_value("O=C(O)CCn1c2c(c3ccc(-c4cccnc4)cc31)CC(NS(=O)(=O)c1ccc(F)cc1)CC2 (stereo not drawn)")
7.00
>>> result_value("O=C(O)CCn1c2c(c3cc(CCc4cccnc4)ccc31)CC(NS(=O)(=O)c1ccc(F)cc1)CC2 (stereo not drawn)")
6.00

Now for a further compound.
Recorded result, O=C(O)CCn1c2c(c3cc(Cc4cccnc4)ccc31)CC(NS(=O)(=O)c1ccc(F)cc1)CC2 (stereo not drawn) [Example 11, hydrochloride] , pIC50: 6.70

----------
Catalogue of minimal effective concentration readings, one per entry.
- Test system: platelet aggregation (platelet-rich citrate plasma, collagen)
- METHOD_SUMMARY: platelet aggregation-inhibiting action (TAI), collagen-induced, platelet-rich plasma, turbidometric method
- Type: cell-based
- CONDITIONS: Homo sapiens, 0.1 h, range of the minimum effective concentration, PRP, 37° C., result after 6 minutes, read-out: TAI threshold concentration

Take a look at these entries with their results.
>>> result_value("O=C(O)CCn1c2c(c3cc(CCc4cccnc4)ccc31)CC(NS(=O)(=O)c1ccc(F)cc1)CC2 (stereo not shown)")
"0.03 to 0.1 µg/mL"
>>> result_value("O=C(O)CCn1c2c(c3cc(OCc4ccccn4)ccc31)CC(N(Cc1ccccn1)S(=O)(=O)c1ccc(F)cc1)CC2 (stereo not shown)")
"0.03 to 0.1 µg/mL"
>>> result_value("O=C(O)CCn1c2c(c3c(Cc4cccnc4)cccc31)CC(NS(=O)(=O)c1ccc(F)cc1)CC2 (stereo not shown)")
"0.3 to 1 µg/mL"

Now for a further compound.
Recorded result, O=C(O)CCn1c2c(c3cc(C(=O)CCc4cccnc4)ccc31)CC(NS(=O)(=O)c1ccc(F)cc1)CC2 (stereo not shown) , minimal effective concentration: 0.03 to 0.1 µg/mL
